Biological target: human B7-H3 protein (human) (UniProt Q5ZPR3)
Test: Octet (BLI) epitope binning on captured human B7-H3; competitor AHP05562
measured.property: inhibition ratio (%)
State the answer as a number, implicitly in %.

The examples below pair each entry with its known result.
# binder, inhibition ratio / %
measured = [
    ("294A3C4 (antibody, V domains shown) VH: QVQLQQPGAELVKPGASVKLSCKASGYTFTSYWMHWVKQRPGQGLEWIGMFHPNSGTTNYNEKFKSKATLTVDKSSSTAYMQLSSLTSEDSAVYYCARRLGIFFDYWGQGTTLTVSS VL: DIVMTQSPSSLTVTAGEKVTMSCRSSQSLLNSGNQKNYLTWYQQKPGQPPKLLIYWASTRDSGVPDRFTGSGSGTDFTLTISSVQTEDLAVYYCQTDYSYPFTFGSGTKLEIK", 90),
    ("62H9H5 (antibody, V domains shown) VH: QVQLQQSGAELAKPGASVKMSCKASGYTFTNYWIHWVKQRPGQGLEWIGYISPSTGYTEYNQKFKGKATLTAVKSSSTAFMQLSSLTSEDSAVYFCARGTGYWGQGTTLTVSS VL: DIQMTQSPASLSASVGESVTITCRASENIYSFFAWYQQKEGKSPQLLVYNAKTLEEGVPSRFSGSGSGTQFSLKINSLQPEDFGSYYCQHNYVSPFTFGSGTKLEIK", 90.2),
    ("312E1E2 (antibody, V domains shown) VH: QVQLQQSGPELVRPGVSVKISCKGSGYTFTDYAMHWVKQSHAKSLEWIGIVSTHYGNTNYNQNFKGKATMTVDKSSSTVYMELARLTSEDSAIYYCARSEGLRLDWFAHWGQGTLVTVSA VL: DIQMTQSPASLSASVGEIVTITCRASENIYSYLAWYQQKQGKSPHLLVYNAKTLAEGVPSRFSGSGSGTQFSLKISRLQPEDFGSYYCQNHYVFPFTFGSGTKLEIK", -24.4),
    ("97E6B2 (antibody, V domains shown) VH: QVQLQQPGAELVKPGASVKMSCKASGYTFTSYWITWVKQRPGQGLEWIGDIYPGSNNTYYNEKFKSKATLTVDTSSSTAYIQLSSLTSEDSAVYYCARLIMSLFDYSGQGTTLTVSS VL: ENVLTQSPANMSASPGEKVTMTCSVSSSVSYIHWYQQKSSTSPTLWIYDTSKLASGVPGRFSGSGSGNSYALTISSMEAEDVATYYCFQGSAYPLTFGAGTKLELK", -7.8),
    ("MGA017 (antibody, from a related filing, V domains shown) VH: EVQLVESGGGLVKPGGSLRLSCAASGFTFSSYGMSWVRQAPGKGLEWVATINSGGSNTYYPDSLKGRFTISRDNAKNSLYLQMNSLRAEDTAVYYCARHDGGAMDYWGQGTTVTVSS VL: DIQMTQSPSSLSASVGDRVTITCRASESIYSYLAWYQQKPGKAPKLLVYNTKTLPEGVPSRFSGSGSGTDFTLTISSLQPEDFATYYCQHHYGTPPWTFGQGTRLEIK", 91.5),
]

Read the entry 429H9F10 (antibody, V domains shown) VH: QIQLVQSGPELKKPGETVKISCKASGYTFTYYGLNWVKQAPGKGLRWMGWINTSSGVPTYADDFKGRFAISLESSASTVFLEISNLKNEDTAAYFCAKDDGYFYTMDHWGQGTSVTVSS VL: DIVMTQPPLSLPVSLGDQASISCRSSQSLVHNNGKTYLHWYLQKPGQSPKLLIYKVSNRFSGVPDRFSGSGSGTDFTLKISRVETEDLGVYFCSQSTQVPWTFGGGTKLEIK and write its reported inhibition ratio.
-22.4

// Input: 227E12D1 (antibody, V domains shown) VH: EVKLVESGGGLVKPGGSLKLSCAASGFTFSSYGMSWVRQTPEKRLEWVATISGGGTYTYYPDSVKGRFTISRDNAKNNLYLQMSSLRSDDTALYYCARHEGLVMDYWGQGTSVTVSS VL: DIQMTQSPASLSASVGETVTITCRASENIYSYLAWYQQKQGKSPQLVVYNAKTLAEGVPSRFSGSGSGTQFSLKINSLQPEDFGTYYCQHHYGPPPYTFGGGTKLEIK . Output its inhibition ratio only.
90

For 106A5B3 (antibody, V domains shown) VH: EVQLVESGGDLVKPGGSLKLSCAASGFTFSSYGMSWVRQTPDKRLEWVATISSGGSYIYYPDSMKGRFTISRDNAKNTLYLQMSSLQSEDTAIYYCASDYGSRYFDYWGQGTTLTVSS VL: QIVLTQSPAIMSASPGEKVTMTCSASSSVIYMSWYKQKPGSSPRLLIYDTSNLASGVPVRFSGSGSGTSYSLTISRMEAEDAATYYCQQWSSYPRTFGGGTKLEIK , write its inhibition ratio.
89.6

Answer with reported inhibition ratio of 126C10B10 (antibody, V domains shown) VH: GVQLQQSGAELVKPGASVKLSCTGSGFNIKDPYIHWVKQRPEQGLEWIGRIDPANGNTKYGPRFQGRATMTADTSSNTANLQLSSLTSEDTAVYYCTTWNYYLSRGFDYWGQGTTLTVSS VL: QIVLTQSPAIMSASPGEKVTMTCSARSSVTYMHWYQQKSGTSPKRWIYDTSKLASGVPARFSGSGSGTSYSLTISSMEAEDAATYYCQQWTSNPLTFGAGTKLELK
-22.2

Using the record for AHP05564 (antibody, V domains shown) VH: EVQLVETGGGVVQPGRSLRLSCAASGFTFSSSGMHWVRQAPGKGLEWVAVISYDVTNKYYVDSVKGRFTISRDNSENTLYLQMNSLRAEDTGVYYCVRDGGPRWLGWYFDLWGRGTLVTVSS VL: NIQMTQSPSSQSASVGDRVTITCRANQAIANSLAWYQQKPGKAPKLLLFGTSLLHSGVPSRFSGSGSGTEYTLTISSLQPDDFGTYYCQQYFSFPRTFGQGTQVDVY , state its measured inhibition ratio.
-3.53

Provenance of the data: patent US20250313632A1
